- Tested on: metrazol induced convulsions and death
- test summary: Metrazol anticonvulsant test (prevention of convulsions and/or death)
- Type: in vivo, mice
- condition description: Mus musculus; mice; one hour before s.c. metrazol (80 mg/kg); 30 minutes observation; TVA16 i.p.; read-out: ED100
- Procedure: A test sample of TVA16 was administered i.p. (0.01 to 100 mg/kg) to a group of three mice, one hour before an s.c. dose of metrazol (80 mg/kg). An effective dose was the amount which prevented convulsions (scored 2 points per animal) and/or death (scored 1 point per animal) in the subsequent 30 minutes.
For each record, write down the corresponding log10 of ED100.
Parameter value (number): base-10 log of ED100 in mg/kg.

The compound `CCC1(c2ccccc2)C(=O)NC(=O)NC1=O` showed log10 of ED100 equal to 1.70

The compound CCC1(c2ccccc2)CCC(=O)NC1=O (centres unmarked) [glutethimide] showed log10 of ED100 equal to 2.18

The compound `CN1C(=O)CN=C(c2ccccc2)c2cc(Cl)ccc21` showed log10 of ED100 equal to 0.40

The compound CCCC(C)(COC(N)=O)COC(N)=O [meprobamate] showed log10 of ED100 equal to 2.30

The compound `C[C@]12N[C@H](Cc3ccccc31)c1ccccc12` showed log10 of ED100 equal to -0.30
